B1: TOR1AIP2 (parent)
chain: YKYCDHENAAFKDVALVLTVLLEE

# Variants of: B1
# test name: protein stability index of a GFP-peptide fusion (GPS, HEK-293T) (PSI 1-6); higher = more stable;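 also: lentivirally expressed fusions sorted by FACS into six bins by GFP to DsRed ratio, PSI derived from sequencing read proportions per bin multiplied by bin number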
# conditions: c terminus: a fixed tail appended
measured quantity: protein stability index
Lab note: jot the number down without any unit.

Sample records with protein stability index:
T19D | 1.3
L18K | 3.17
A15I | 1.96
E7C | 4.53
T19K | 4.43

Kindly consider the entry below.
Query block: I have this variant here, H6Q , and I need its recorded protein stability index.
Result block: 3.06
